Method Description: qHTS assay to identify small molecule antagonists of the androgen receptor (AR) signaling pathway using the MDA cell line - cell viability counter screen (AID 743041; further: nearly all actives have a fitted effect of over 45% in size)
Run Parameters: MDA-kb2 viability, CellTiter-Fluor, 16 h, cells co-treated with R1881 androgen agonist; series mostly up to 70.3 µM
Results filed as inconclusive are left out. Calls of active or inactive are those of the source. The call rests on the fitted dose curve; in most records, active means well fitted cell-killing curve with a large enough effect in the repeat runs; inconclusive means weak or mixed curves, or effect the other way; inactive means flat fitted curve, though single readings scatter. Non-standard residues stand in square brackets, D forms with d. Residues, ends and D or L forms follow the SMILES beside them. pGlu = O=C1CC[C@@H](C(=O)O)N1; Thz = O=C(O)[C@@H]1CSCN1
Classes used: yes for active, no for inactive

Compound | Assigned Label
CCCCCCCCCCCCCCCCCC(=O)OCC(C)O (stereo not given) | yes
Cc1nc(NS(=O)(=O)c2ccc(N)cc2)nc(C)c1Br | no
CC(O)[C@@H]1NC(=O)[C@H](CCCCN)NC(=O)[C@@H](Cc2c[nH]c3ccccc23)NC(=O)[C@H](Cc2ccccc2)NC(=O)[C@@H](NC(=O)[C@H](N)Cc2ccccc2)CSSC[C@@H](C(=O)N[C@H](CO)[C@@H](C)O)NC1=O (stereo not given in full) | no
CCOc1ccc(N=Nc2ccc(N)cc2N)cc1 | yes
CN=C(NC)NCc1ccccc1 | no
CC(=O)Nc1ccc(OC(=O)c2ccccc2O)cc1 | no
COc1cc(C)c(/C=C/C(C)=C/C=C/C(C)=C/C(=O)O)c(C)c1C | no
CC1CS(=O)(=O)CCN1/N=C/c1ccc([N+](=O)[O-])o1 (stereo not given) | no
NCCC[C@H](N)C(=O)O | no
Nc1nc2c(c(=O)[nH]1)N(C=O)C(CNc1ccc(C(=O)N[C@@H](CCC(=O)O)C(=O)O)cc1)CN2 (stereo not given in full) | no
c1ccc2c(c1)Sc1ccccc1N2CCN1CCCC1 | no
O=C(O)CC/C=C\CC[C@@H]1[C@@H](N2CCCCC2)[C@@H](O)C[C@@H]1OCc1ccc(-c2ccccc2)cc1 | no
CCOC(=O)C1=C[C@@H](OC(CC)CC)[C@H](NC(C)=O)[C@@H](N)C1 | no
CCCCCCCCCCCCCCCC(=O)OC[C@@H](NC(=O)C(Cl)Cl)[C@H](O)c1ccc([N+](=O)[O-])cc1 | no
COc1ccc(C[C@@H](C)NC[C@H](O)c2ccc(O)c(NC=O)c2)cc1 | no
O=C(O)c1cc2ccccc2c(Cc2c(O)c(C(=O)O)cc3ccccc23)c1O | no
CCCCCCCN(CC)CCCC(O)c1ccc(NS(C)(=O)=O)cc1 (stereo not given) | no
O=C1CC[C@@H](C(=O)N2CSC[C@H]2C(=O)O)N1 ([pGlu]-[Thz]-OH) | no
O=C(CCCCCCCCCCCCC1CCCC1)Nc1ccc(S(=O)(=O)c2ccc(NC(=O)CCCCCCCCCCCCC3CCCC3)cc2)cc1 | no
COc1cc2c(cc1OC)[C@@H](c1ccccc1)CN(C)CC2 | no

----------
Method Description: qHTS assay to identify small molecule antagonists of the androgen receptor (AR) signaling pathway - cell viability counter screen (AID 743033; further: nearly all actives have a fitted effect of over 45% in size)
Run Parameters: AR-bla HEK293 viability, CellTiter-Glo luminescence, 16 h; series mostly up to 58.5 µM
Records with an inconclusive call do not appear. Calls of active or inactive are those of the source. Calls come from the whole dose curve; as a rule, active = well fitted cell-killing curve with a large enough effect in the repeat runs; inconclusive = weak or mixed curves; inactive = no such curve, though single readings can be large or run the other way.

Compound | outcome
O=C(NCCNCC(O)COc1ccc(O)cc1)N1CCOCC1 (configuration not stated) | inactive
C=C[C@]1(C)C[C@@H](OC(=O)CO)[C@]2(C)[C@H](C)CC[C@]3(CCC(=O)[C@H]32)[C@@H](C)[C@@H]1O | inactive
COC(=O)[C@H]1[C@H]2C[C@@H]3c4[nH]c5cc(OC)ccc5c4CCN3C[C@H]2C[C@@H](OC(=O)/C=C/c2cc(OC)c(OC)c(OC)c2)[C@@H]1OC | inactive
CNC(=O)c1c(I)c(C(=O)NCC(=O)Nc2c(I)c(C(=O)O)c(I)c(C(=O)NCCO)c2I)c(I)c(N(C)C(C)=O)c1I | inactive
O=C(Cn1c(=O)sc2ccc(Cl)cc21)N1CCN(CCO)CC1 | inactive
O=[N+]([O-])O[C@@H]1CO[C@H]2[C@@H]1OC[C@@H]2O | inactive
NC(N)=NCC1COc2ccccc2O1 (configuration not stated) | inactive
CCCCC/C=C\CCC(=O)N[C@H]1[C@H](Oc2c3cc4cc2Oc2ccc(cc2Cl)[C@@H](O[C@@H]2O[C@H](CO)[C@@H](O)[C@H](O)[C@H]2NC(C)=O)[C@@H]2NC(=O)[C@H](NC(=O)[C@@H]4NC(=O)[C@H]4NC(=O)[C@@H](Cc5ccc(c(Cl)c5)O3)NC(=O)[C@H](N)c3ccc(O)c(c3)Oc3cc(O)cc4c3)c3ccc(O)c(c3)-c3c(O[C@H]4O[C@H](CO)[C@@H](O)[C@H](O)[C@@H]4O)cc(O)cc3[C@@H](C(=O)O)NC2=O)O[C@H](CO)[C@@H](O)[C@@H]1O | inactive
CO[C@H]1C[C@@H]2CC[C@@H](C)[C@@](O)(O2)C(=O)C(=O)N2CCCC[C@H]2C(=O)O[C@H]([C@H](C)C[C@@H]2CC[C@@H](OC(=O)C(C)(CO)CO)[C@H](OC)C2)CC(=O)[C@H](C)/C=C(\C)[C@@H](O)[C@@H](OC)C(=O)[C@H](C)C[C@H](C)/C=C/C=C/C=C/1C | inactive
O=C(Nc1ccc(O)cc1)c1ccccc1O | inactive
CCCC(=O)Nc1c(I)cc(I)c(CC(CC)C(=O)O)c1I (configuration not stated) | inactive
C[C@]12C=CC(=O)N[C@@H]1CC[C@@H]1[C@@H]2CC[C@]2(C)[C@@H](C(=O)Nc3cc(C(F)(F)F)ccc3C(F)(F)F)CC[C@@H]12 | inactive
COc1c(O[C@@H]2O[C@H](CO)[C@@H](O)[C@H](O)[C@H]2O)cc2c(c1OC)-c1ccc(SC)c(=O)cc1[C@@H](NC(C)=O)CC2 | inactive
CCCCCCCCCCCCCCCCCCCCCCO | inactive
Nc1ncnc(Nc2ccc(Cl)cc2)n1 | inactive
OCCO[C@@H]1[C@@H](O)[C@H](O)[C@@H](CO)O[C@@H]1O | inactive
NCCC(=O)[N-][C@@H](Cc1cnc[nH]1)C(=O)O.[Zn] | inactive

----------
Assayed Target: Nuclear receptor subfamily 1 group I member 2 (Homo sapiens)
Method Description: Human pregnane X receptor (PXR) activation by small molecules, qHTS assay (AID 1346985); further: nearly all actives have a fitted effect of over 40% in size
Run Parameters: DPX-2 HepG2 CYP3A4-luciferase, 24 h; series mostly up to 38.3 µM
Results filed as inconclusive are left out. Active and inactive are the calls of the source. Calls follow the shape of the dose curve; as a rule, active = well fitted activation curve with a large enough effect in the repeat runs; inconclusive = weak or mixed curves; inactive = flat fitted curve, though single readings scatter.
Labels: T (active), F (inactive)

Compound | Assigned Label
O=C(O)c1cc(O)c2c(c1)[O][Bi][O]2 | F
CC(C)(C)C1(O)CCN2CC3c4ccccc4CCc4cccc(c43)C2C1 (stereo not drawn) | T
CC(O)CN(C)C (stereo not drawn) | F
CCOC(=O)c1c[nH]c2cc(OCC(C)C)c(OCC(C)C)cc2c1=O | F
CCC(=O)c1ccc2c(c1)N(CCCN1CCN(CCO)CC1)c1ccccc1S2 | T
Cc1cc(O)c2c(c1)O[C@@]1(C)CC[C@H]3C(C)(C)CCCC34CO[C@@H]2[C@H]41 (stereo partly drawn) | T
CCCC1C(=O)N2C(N(C)C)=Nc3ccc(C)cc3N2C1=O (stereo not drawn) | F
CCCCC/C=C\C/C=C\C/C=C\CCCCC(=O)O | F
CN=C1C=CC(=C(c2ccc(N(C)C)cc2)c2ccc(N(C)C)cc2)C=C1 | F
Nc1nc2[nH]cc(CCc3ccc(C(=O)N[C@@H](CCC(=O)O)C(=O)O)cc3)c2c(=O)[nH]1 | F
O=[n+]1ccn([O-])c2ccccc21 | F
CC(C)[C@@H](N)C(=O)O | F
CN[C@@H]1[C@H](O[C@H]2[C@H](O[C@H]3[C@H](O)[C@@H](O)[C@H](N=C(N)N)[C@@H](O)[C@@H]3N=C(N)N)O[C@@H](C)[C@]2(O)CO)O[C@@H](CO)[C@H](O)[C@H]1O | F
OC[C@H]1OC([S-])[C@H](O)[C@@H](O)[C@@H]1O.[Au+] (stereo partly drawn) | F
CC(=O)N[C@@H]1C(O[C@H]2O[C@H](C(=O)O)C(O)[C@H](O)[C@H]2O)[C@H](O)[C@@H](CO)O[C@H]1O[C@@H]1C(C(=O)O)O[C@@H](O[C@H]2[C@H](O)[C@@H](CO)OC(O)[C@@H]2NC(C)=O)[C@H](O)[C@H]1O (stereo partly drawn) | F
CC(C)NCC(O)COc1ccccc1-n1cccc1 (stereo not drawn) | F
C=CC[C@@H]1/C=C(\C)C[C@H](C)C[C@H](OC)[C@H]2O[C@@](O)(C(=O)C(=O)N3CCCC[C@H]3C(=O)O[C@H](/C(C)=C/[C@@H]3CC[C@@H](O)[C@H](OC)C3)[C@H](C)[C@@H](O)CC1=O)[C@H](C)C[C@@H]2OC | F
CN(C)C(=O)CCSC(SCCC(=O)O)c1cccc(/C=C/c2ccc3ccc(Cl)cc3n2)c1 (stereo not drawn) | T

Data provenance is PubChem BioAssay (Tox21).
